// provenance: patent US12371400B2

Target: hCatK (Homo sapiens, UniProt P43235)
Assay: Kinetic evaluation of covalent inhibitors on purified hCatK
Settings: 100 pM hCatK, 4 μM Z-FR-AMC, 26° C., reaction started by addition of CatK; read-out: Kl
recorded-endpoint: Ki (nM)

| molecule | recorded-endpoint | result-value |
| --- | --- | --- |
| CC(C)(F)C[C@H](N[C@@H](c1ccc(-c2ccc(S(C)(=O)=O)cc2)cc1)C(F)(F)F)C(=O)NCC#CBr | Ki | 193 |

a: C#CCNC(=O)[C@H](CC(C)(C)F)N[C@@H](c1ccc(-c2ccc(S(C)(=O)=O)cc2)cc1)C(F)(F)F
b: C#CC(C)NC(=O)[C@H](CC(C)(C)F)N[C@@H](c1ccc(-c2ccc(S(C)(=O)=O)cc2)cc1)C(F)(F)F (mixture of isomers)
c: CC(C)C[C@H](NC(=O)[C@H]1O[C@@H]1C(=O)O)C(=O)NCCCCN=C(N)N [Compound E-64, reference compound]
QUERY: Ordering criterion: Ki; begin with the maximum. Enter labels, ranked according to the request.
RESULT: b, a, c

----------
Target: hCatK (Homo sapiens, UniProt P43235)
Assay: Kinetic evaluation of covalent inhibitors on purified hCatK
Type: biochemical
Details: 100 pM hCatK, 4 μM Z-FR-AMC, 26° C., reaction started by addition of CatK
recorded-endpoint: kinact/Kl (M⁻¹ s⁻¹)

| molecule | kinact/Kl / M⁻¹ s⁻¹ |
| --- | --- |
| C#CC(C)NC(=O)[C@H](CC(C)(C)F)N[C@@H](c1ccc(-c2ccc(S(C)(=O)=O)cc2)cc1)C(F)(F)F (mixture of isomers) | 250 |
| CC(C)(F)C[C@H](N[C@@H](c1ccc(-c2ccc(S(C)(=O)=O)cc2)cc1)C(F)(F)F)C(=O)NCC#CBr | 1650 |

1: C#CCNC(=O)[C@H](CC(C)(C)F)N[C@@H](c1ccc(-c2ccc(S(C)(=O)=O)cc2)cc1)C(F)(F)F
2: CC(C)C[C@H](NC(=O)[C@H]1O[C@@H]1C(=O)O)C(=O)NCCCCN=C(N)N [Compound E-64, reference compound]
QUERY: Between 1 and 2 , whose measured kinact/Kl reads higher? Response format: the label of the selected entry.
RESULT: 2

----------
Target protein (sequence): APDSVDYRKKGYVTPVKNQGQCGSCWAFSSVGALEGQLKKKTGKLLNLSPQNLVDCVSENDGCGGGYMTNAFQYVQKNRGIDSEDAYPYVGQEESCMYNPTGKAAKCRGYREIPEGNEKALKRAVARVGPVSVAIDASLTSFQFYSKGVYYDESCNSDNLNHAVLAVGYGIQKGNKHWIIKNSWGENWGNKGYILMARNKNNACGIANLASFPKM
recorded-endpoint: IC50 (nM)

P: C#CC1(NC(=O)[C@H](CC(C)(C)F)N[C@@H](c2ccc(-c3ccc(S(C)(=O)=O)cc3)cc2)C(F)(F)F)CC1 [Compound 3]
Q: CC(C)(F)C[C@H](N[C@@H](c1ccc(-c2ccc(S(C)(=O)=O)cc2)cc1)C(F)(F)F)C(=O)NCC#N [Compound 2, reference compound]
R: CC(C)(F)C[C@H](N[C@@H](c1ccc(-c2ccc(S(C)(=O)=O)cc2)cc1)C(F)(F)F)C(=O)NCC#CBr [Compound 6]
QUERY: Ranking request: IC50, max to min, items above. Enter labels, ranked according to the request.
RESULT: P, R, Q
